- measurementDescription: inhibitors of HIV-1 Env-driven cell-cell fusion, primary screen, HeLa-JRFL effector, CEM21 target cells, luciferase (AID 651610)
- conditionContext: at 16.7 µM unless noted
The campaign covered roughly 360,000 compounds. About 3,900 (1.1%) were called active.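 The calls were made as follows: active = mean replicate inhibition score of at least 50 and every replicate individually at or above 50; inconclusive = only one of the two criteria met; inactive = mean below 50 and not all replicates reaching 50.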 Many of the other results were omitted from the sample, so actives are more common in it than they were.
Labels: yes for active, no for inactive

smilesEntry: Cc1noc(C)c1S(=O)(=O)N(C)C[C@@H]1OCc2ccccc2-c2ccccc2C(=O)N([C@@H](C)CO)C[C@H]1C
classLabel: no
--
smilesEntry: C[C@H]1CN([C@@H](C)CO)C(=O)c2ccccc2-c2ccccc2CO[C@H]1CN(C)S(=O)(=O)c1cccc(C#N)c1
classLabel: yes
--
smilesEntry: O=C(COC(=O)COc1cc(Cl)c(Cl)cc1Cl)NC1CC1
classLabel: no
--
smilesEntry: C[C@@H]1CN([C@H](C)CO)C(=O)c2ccccc2-c2ccccc2CO[C@H]1CN(C)S(=O)(=O)c1ccsc1
classLabel: no
--
smilesEntry: NC(=S)NN=Cc1ccc(OC(=O)COc2cc(Cl)c(Cl)cc2Cl)cn1
classLabel: yes
